Tested on: UACC-257 melanoma
Assay: NCI tumour cell line growth inhibition, 48 h
property_name: TGI

1) Nc1nc(Cl)c(/C=N\O)c(NCC2(CO)CCC2)n1: > 100 µM
2) O=C(Nc1ccc(Cl)cc1Cl)C1C(=O)C(=O)N(c2ccc(Cl)cc2Cl)C1=O (stereo not drawn): > 100 µM

The compound CC(=O)[CH-]C(=O)c1ccccc1.CC(=O)[CH-]C(=O)c1ccccc1.CC(C)CCCC(C)[C@H]1CCC2[C@@H]3CC=C4C[C@@H]([O-])CC[C@]4(C)C3CC[C@@]21C.CC(C)CCCC(C)[C@H]1CCC2[C@@H]3CC=C4C[C@@H]([O-])CC[C@]4(C)C3CC[C@@]21C.[Ti+4] (stereo partly drawn) showed TGI equal to > 100 µM
